TARGET_UNDER_TEST: Non-receptor tyrosine-protein kinase TYK2 (Homo sapiens)
Sequence (P29597 whole entry): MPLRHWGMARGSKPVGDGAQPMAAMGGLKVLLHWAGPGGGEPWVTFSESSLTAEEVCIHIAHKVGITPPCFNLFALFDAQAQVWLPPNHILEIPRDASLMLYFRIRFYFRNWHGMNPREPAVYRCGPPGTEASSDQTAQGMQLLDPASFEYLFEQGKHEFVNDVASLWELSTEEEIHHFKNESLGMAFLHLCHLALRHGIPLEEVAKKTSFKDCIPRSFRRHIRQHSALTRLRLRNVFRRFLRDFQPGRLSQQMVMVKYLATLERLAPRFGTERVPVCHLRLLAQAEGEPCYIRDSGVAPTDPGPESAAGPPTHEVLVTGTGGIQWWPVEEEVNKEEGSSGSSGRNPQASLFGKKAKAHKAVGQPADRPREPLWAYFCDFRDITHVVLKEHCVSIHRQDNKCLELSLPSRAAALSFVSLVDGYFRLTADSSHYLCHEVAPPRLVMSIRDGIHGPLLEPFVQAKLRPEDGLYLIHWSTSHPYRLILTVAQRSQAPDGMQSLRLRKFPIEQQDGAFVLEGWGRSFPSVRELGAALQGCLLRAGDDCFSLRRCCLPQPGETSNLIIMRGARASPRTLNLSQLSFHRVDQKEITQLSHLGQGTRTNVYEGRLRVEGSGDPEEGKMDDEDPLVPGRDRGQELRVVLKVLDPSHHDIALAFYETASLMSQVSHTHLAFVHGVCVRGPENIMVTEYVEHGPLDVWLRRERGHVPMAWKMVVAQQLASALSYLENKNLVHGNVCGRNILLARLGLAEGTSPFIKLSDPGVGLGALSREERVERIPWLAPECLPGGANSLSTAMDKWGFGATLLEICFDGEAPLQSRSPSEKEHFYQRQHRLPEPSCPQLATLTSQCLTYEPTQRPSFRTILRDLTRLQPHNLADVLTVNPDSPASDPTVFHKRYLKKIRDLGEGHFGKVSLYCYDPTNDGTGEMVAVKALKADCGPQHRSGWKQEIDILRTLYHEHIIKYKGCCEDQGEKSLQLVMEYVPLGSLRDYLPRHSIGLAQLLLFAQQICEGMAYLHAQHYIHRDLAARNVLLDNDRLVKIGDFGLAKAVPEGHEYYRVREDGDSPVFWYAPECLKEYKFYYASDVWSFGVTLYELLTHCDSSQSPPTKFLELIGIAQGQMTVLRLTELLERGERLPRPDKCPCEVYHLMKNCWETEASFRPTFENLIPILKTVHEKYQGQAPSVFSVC
METHOD_NOTES: Tyk2 & JAK2 Caliper Assay: The caliper machine employs an off chip mobility shift assay to detect phosphorylated peptide substrates from kinase assays, using microfluidics technology. The assays are carried out at ATP concentration equivalent to the ATP Km, and at 1 mM ATP. Compounds are serially diluted in DMSO then further diluted in assay buffer (25 mM HEPES, pH 7.5, 0.01% Brij-35, 0.01% Triton, 0.5 mM EGTA). 5 ul of diluted compound was added into wells first, then 10 ul of enzyme mix was added into wells, followed by 10 uL of substrate mix (peptide and ATP in 10 mM MgCl2) to start reaction. Reaction was incubated at 28° C. for 25 min and then added 25 ul stop buffer (100 mM HEPES, 0.015% Brij-35, 50 mM EDTA), followed by reading with Caliper. JAK2 at 1 nM final concentration and TYK2 at 9.75 nM are from Carna, and substrates used are ATP at 20 and 16 uM, respectively. JAK2 assay uses peptide 22 and TYK2 uses peptide 30 (Caliper), each at 3 uM.
pKi: −log10 of the molar value.
Catalogue of molecules with associated pKi

Some molecules with known pKi results, for comparison:
INSERT INTO measurements (test_smiles, target_under_test, experimental_result) VALUES
  ('O=C1NCc2nc(-c3c(F)cccc3F)cc(Nc3ccc(C(=O)N4CCCCC4)cc3)c21', 'Non-receptor tyrosine-protein kinase TYK2 (Homo sapiens)', '> 8.00'),
  ('CCNC(=O)c1ccc(Nc2cc(-c3c(F)cccc3Cl)nc3c2C(=O)NC3)nc1', 'Non-receptor tyrosine-protein kinase TYK2 (Homo sapiens)', '> 8.00'),
  ('O=C1NCc2nc(-c3c(F)cccc3F)cc(Nc3ccc(F)cn3)c21', 'Non-receptor tyrosine-protein kinase TYK2 (Homo sapiens)', '> 8.00'),
  ('CC(C)N1CCN(c2ccc(Nc3cc(-c4c(F)cccc4F)nc4c3C(=O)NC4)nc2)CC1', 'Non-receptor tyrosine-protein kinase TYK2 (Homo sapiens)', '> 8.00'),
  ('CC[C@]1(c2ccc(Nc3nc(-c4c(F)cccc4F)nc4c3C(=O)NC4)cc2)CCNC1=O', 'Non-receptor tyrosine-protein kinase TYK2 (Homo sapiens)', '> 8.00'),
  ('O=C1NCc2nc(-c3c(F)cccc3F)cc(Nc3ccc(C4(O)CCOCC4)cn3)c21', 'Non-receptor tyrosine-protein kinase TYK2 (Homo sapiens)', '> 8.00'),
  ('CC[C@@]1(c2ccc(Nc3nc(-c4c(F)cccc4F)nc4c3C(=O)NC4)cc2)CCNC1=O', 'Non-receptor tyrosine-protein kinase TYK2 (Homo sapiens)', '> 8.00');

Could you now look at the following molecule, please?
Give reported pKi value for CC1(O)CCN(C(=O)c2ccc(Nc3cc(-c4c(F)cccc4F)nc4c3C(=O)NC4)cc2)CC1
> 8.00

----------
Catalogue of molecules with associated Ki
TARGET_UNDER_TEST: Non-receptor tyrosine-protein kinase TYK2 (Homo sapiens)

INSERT INTO assay_data (molecule, experimental_result) VALUES
  ('CC1(O)CN(c2ccc(Nc3cc(-c4c(F)cccc4F)nc4c3C(=O)NC4)nc2)C1', '< 10 nM');

Give reported Ki value for CC1CC(O)CC(C)N1c1ccc(Nc2cc(-c3c(F)cccc3F)nc3c2C(=O)NC3)nc1 (stereo not given)
< 10 nM

Give reported Ki value for O=C1NCc2nc(-c3c(F)cccc3F)cc(Nc3ccc(N4CCC5(CC5)C4)cn3)c21
< 10 nM

Give reported Ki value for Cc1ccc(Nc2nc(-c3c(F)cccc3F)nc3c2C(=O)NC3)cc1
< 10 nM

Give reported Ki value for CCNC(=O)Cc1ncc(Nc2nc(-c3c(F)cccc3F)nc3c2C(=O)NC3)cn1
> 1000 nM
